- TEST_SUMMARY: Trypanosoma cruzi growth suppression in host cells – NIH3T3 host cells, beta-gal luminescence, confirmation (AID 2044);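 also: intracellular parasites grown in NIH/3T3 mouse fibroblasts as host cells; luminescent beta-galactosidase reporter signal from transgenic T. cruzi replicating inside host cells; inhibitors lower the luminescence signal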
- Type: functional, cell-based
Activity calls are given as the source filed them.
// reported EC50 per item

{"columns": ["COMPOUND", "EC50"],
 "data": [
  ["CN(c1ccccc1)S(=O)(=O)c1ccc(C(=O)Nc2ccncc2)cc1", "1.18 µM (active)"],
  ["Cc1nn(Cc2ccc(Cl)cc2)c(C)c1NC(=O)c1cc(-c2ccc3c(c2)OCO3)on1", "1.99 µM (active)"],
  ["CCCNCC1C(Oc2ccc(Cl)cc2Cl)C(=O)N1c1cccc(C)c1C (stereo not given)", "3.52 µM (active)"],
  ["Cc1cc(N2CCN(C)CC2)nc2ccc(NC(=S)N3CCN(c4ccc(Cl)cc4)CC3)cc12", "0.762 µM (active)"],
  ["Cc1c(C)c(C)c2[nH]c(-c3ccc4c(c3)OCO4)nc2c1C", "1.45 µM (active)"],
  ["CC(C)c1csc(CN2CCC(CO)(Cc3cccc(F)c3)CC2)n1", "1.09 µM (active)"],
  ["CCOC(=O)N/N=C\\c1ccc([N+](=O)[O-])o1", "0.542 µM (active)"],
  ["CCN1CCCc2cc(CN(CCN3CCOCC3)C(S)=Nc3ccc(OC)c(Cl)c3)ccc21", "1.63 µM (active)"],
  ["Cc1cc(O)c(-c2cc(O)c(C)cc2O)cc1O", "2.37 µM (active)"],
  ["C=CC[n+]1c(-c2ccc(C)cc2)csc1Nc1c(C)n(C)n(-c2ccccc2)c1=O", "4.99 µM (active)"]
]}

====

- EXPERIMENTAL_TARGET: Heat shock factor protein 1 (Mus musculus, UniProt P38532)
- Sequence (P38532 whole entry): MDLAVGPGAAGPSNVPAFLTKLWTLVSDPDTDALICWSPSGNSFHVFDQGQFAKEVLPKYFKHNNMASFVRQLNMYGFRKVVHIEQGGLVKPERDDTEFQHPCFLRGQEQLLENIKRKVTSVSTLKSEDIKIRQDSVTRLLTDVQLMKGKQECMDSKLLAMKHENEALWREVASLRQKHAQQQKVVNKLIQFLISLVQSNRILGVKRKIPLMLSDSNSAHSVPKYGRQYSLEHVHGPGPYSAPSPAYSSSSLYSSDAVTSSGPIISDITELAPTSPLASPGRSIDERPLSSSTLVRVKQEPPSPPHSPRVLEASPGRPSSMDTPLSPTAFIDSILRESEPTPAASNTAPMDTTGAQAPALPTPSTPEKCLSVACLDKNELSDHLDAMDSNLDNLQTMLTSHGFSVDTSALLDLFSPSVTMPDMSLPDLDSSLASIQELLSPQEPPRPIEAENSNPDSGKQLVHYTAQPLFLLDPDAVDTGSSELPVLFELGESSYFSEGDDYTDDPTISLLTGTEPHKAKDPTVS
- TEST_SUMMARY: enhancement of HSF1-driven luciferase signal – cell-based, NIH3T3, luminescence, dose retest, confirmation (AID 435004);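 also: stress induced by proteasome inhibitor MG132 added 30 min after compound; luciferase reporter driven by HSF1 response element in NIH3T3 cells; actives raise luminescence as potentiators of the MG132 stress response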
- Type: functional
Calls of active or inactive are those of the source.
Labels: active, inactive

{"columns": ["COMPOUND", "ANSWER_LABEL"],
 "data": [
  ["Cc1onc(-c2ccccc2)c1C(=O)N=C(N)c1ccc(C(F)(F)F)cc1", "inactive"],
  ["CCC1(c2ccccc2)NC(=O)N(CC(=O)NCc2ccccc2OC)C1=O (stereo not given)", "inactive"],
  ["CN(Cc1nnc(-c2ccc(F)cc2)o1)c1ccccc1", "inactive"],
  ["COc1cccc(-c2nn(-c3ccccc3)cc2C(=O)n2nnc3ccccc32)c1", "active"],
  ["Cc1[nH]c2ccccc2c1/C=C(\\C#N)C(=O)NCC1CCCO1 (stereo not given)", "active"],
  ["Cc1c(C#N)c(NC(=O)CCl)n(Cc2ccccc2)c1C", "inactive"],
  ["CCCCOC(=O)CCCc1ccc([N+](=O)[O-])cc1[N+](=O)[O-]", "inactive"],
  ["O=C(O)c1cc(-c2ccc(Cl)c(Cl)c2)n(-c2ccccc2)n1", "inactive"],
  ["CCOC(=O)c1c(S(=O)(=O)NCC2CCN(CCc3cccs3)CC2)c(C)n(C)c1C", "inactive"],
  ["CC(=O)c1cccc(/N=C/c2c(O)oc3ccccc3c2=O)c1", "active"],
  ["CC1(C)CC2=Nc3cc4c(cc3C(c3ccc5c(c3)OCO5)C2=C(O)C1)OCO4 (stereo not given)", "active"],
  ["COc1ccccc1N1CCN(Cc2cccc(OC)c2O)CC1", "inactive"],
  ["COCCCn1c(C(=O)NC2CCCCC2C)cc2c(=O)n3cccc(C)c3nc21 (stereo not given)", "inactive"],
  ["COC(=O)N1C(c2ccccc2)C1c1ccccc1 (stereo not given)", "inactive"],
  ["COc1cccc(-c2nc(N3CCN(c4ccccc4)CC3)c3ccccc3n2)c1O", "inactive"]
]}

====

- TEST_SUMMARY: cells
- Assay type: functional, cell-based
Calls of active or inactive are those of the source.

{"columns": ["COMPOUND", "EC50"],
 "data": [
  ["CCCOc1ccc(/C=N/NC(=O)CSc2ccccn2)cc1OC", "> 350 µM (not active)"],
  ["CC1SC(NC(=O)c2ccncc2)=NC1=O (centres undefined)", "> 350 µM (not active)"],
  ["CC(C)c1ccc(N(C(=O)c2snc(C(N)=O)c2N)C(C(=O)NC2CCCC2)c2ccncc2)cc1 (centres undefined)", "> 350 µM (not active)"],
  ["CCCCn1c(/C=N/Nc2nc3ccccc3[nH]2)nc2ccccc21", "43.7 µM (active)"]
]}

====

// reported IC50 per item
- EXPERIMENTAL_TARGET: UniProt P24822
- Sequence (P24822 whole entry): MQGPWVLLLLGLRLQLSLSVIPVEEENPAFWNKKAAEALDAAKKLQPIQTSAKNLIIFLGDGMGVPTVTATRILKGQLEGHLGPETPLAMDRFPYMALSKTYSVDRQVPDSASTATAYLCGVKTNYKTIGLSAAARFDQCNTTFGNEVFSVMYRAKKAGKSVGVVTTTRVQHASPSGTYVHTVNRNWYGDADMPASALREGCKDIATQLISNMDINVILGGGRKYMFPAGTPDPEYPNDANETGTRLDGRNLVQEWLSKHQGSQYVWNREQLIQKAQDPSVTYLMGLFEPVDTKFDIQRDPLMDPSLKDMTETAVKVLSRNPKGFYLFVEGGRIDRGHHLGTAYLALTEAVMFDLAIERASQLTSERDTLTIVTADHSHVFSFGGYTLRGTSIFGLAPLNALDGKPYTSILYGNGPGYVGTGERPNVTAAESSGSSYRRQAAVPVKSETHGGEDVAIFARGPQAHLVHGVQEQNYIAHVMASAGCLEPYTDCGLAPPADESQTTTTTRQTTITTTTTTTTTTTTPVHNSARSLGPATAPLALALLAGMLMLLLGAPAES
- TEST_SUMMARY: PubChem AID 488785
- Type: functional
Calls of active or inactive are those of the source.
ASSAY_METRIC: IC50

{"columns": ["COMPOUND", "ASSAY_METRIC", "DATA_VALUE"],
 "data": [
  ["O=C(COc1ccccc1C(=O)N/N=C\\c1ccc(O)c(O)c1)N/N=C/c1ccc(O)c(O)c1", "IC50", "12.8 µM (active)"],
  ["Cc1cc(Cl)ccc1NC(=S)NCCC(c1ccccc1)c1ccccc1", "IC50", "7.04 µM (active)"],
  ["Oc1cc(O)c2c(c1)O[C@H](c1ccc(O)c(O)c1)[C@H](O)C2 [(-)-EPICATECHIN]", "IC50", "1.36 µM (active)"],
  ["O=c1c(O)c(-c2cc(O)c(O)c(O)c2)oc2cc(O)cc(O)c12", "IC50", "12.5 µM (active)"]
]}

====

This section lists AC50 readings for Cytochrome P450 2D6 (Homo sapiens, UniProt P10635).
ASSAY_METRIC: AC50

{"columns": ["QUERY_SMILES", "DATA_VALUE"],
 "data": [
  ["FC(F)(F)c1cc(CN2CCC3(CCNCC3)CC2)cc(C(F)(F)F)c1", "25.1 µM (inconclusive)"],
  ["CCc1ccc(Nc2ncccc2C#N)cc1", "20 µM (inconclusive)"],
  ["COc1ccc2[nH]cc(CCNc3cc(-c4cccnc4)ncn3)c2c1", "20 µM (inconclusive)"],
  ["C/C(=N/OC(=O)c1cccc(Cl)c1)c1nccs1", "35.5 µM (inconclusive)"],
  ["CCOC(=O)c1oc2nc(CC(C)C)c3c(c2c1N)CCC3", "25.1 µM (inconclusive)"]
]}

====

- EXPERIMENTAL_TARGET: Voltage-dependent T-type calcium channel subunit alpha-1H (Homo sapiens, UniProt O95180);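 also: channel activity triggered by adding a high calcium stimulation buffer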
- Type: functional
Calls of active or inactive are those of the source.
// reported EC50 per item
ASSAY_METRIC: EC50

{"columns": ["COMPOUND", "DATA_VALUE"],
 "data": [
  ["COc1ccc(N(C)C(=O)c2ccc3nc(-c4ccccc4)c(-c4ccccc4)nc3c2)cc1", "3.17 µM (active)"],
  ["CC(C)Oc1cc(NC(=O)C[S+]([O-])CC(=O)Nc2cccc(C(F)(F)F)c2)c(Cl)cc1Cl (centres undefined)", "3.23 µM (active)"],
  ["O=C(CCCSc1ccccc1)Nc1nc(-c2ccccn2)cs1", "4.7 µM (active)"],
  ["Cc1cccc(C)c1NC(=O)C(c1ccc(Cl)cc1Cl)N1CCCCC1 (centres undefined)", "2.39 µM (active)"]
]}

====

// reported IC50 per item
- EXPERIMENTAL_TARGET: Fatty acid synthase (Homo sapiens, UniProt P49327)
- Sequence (P49327 whole entry): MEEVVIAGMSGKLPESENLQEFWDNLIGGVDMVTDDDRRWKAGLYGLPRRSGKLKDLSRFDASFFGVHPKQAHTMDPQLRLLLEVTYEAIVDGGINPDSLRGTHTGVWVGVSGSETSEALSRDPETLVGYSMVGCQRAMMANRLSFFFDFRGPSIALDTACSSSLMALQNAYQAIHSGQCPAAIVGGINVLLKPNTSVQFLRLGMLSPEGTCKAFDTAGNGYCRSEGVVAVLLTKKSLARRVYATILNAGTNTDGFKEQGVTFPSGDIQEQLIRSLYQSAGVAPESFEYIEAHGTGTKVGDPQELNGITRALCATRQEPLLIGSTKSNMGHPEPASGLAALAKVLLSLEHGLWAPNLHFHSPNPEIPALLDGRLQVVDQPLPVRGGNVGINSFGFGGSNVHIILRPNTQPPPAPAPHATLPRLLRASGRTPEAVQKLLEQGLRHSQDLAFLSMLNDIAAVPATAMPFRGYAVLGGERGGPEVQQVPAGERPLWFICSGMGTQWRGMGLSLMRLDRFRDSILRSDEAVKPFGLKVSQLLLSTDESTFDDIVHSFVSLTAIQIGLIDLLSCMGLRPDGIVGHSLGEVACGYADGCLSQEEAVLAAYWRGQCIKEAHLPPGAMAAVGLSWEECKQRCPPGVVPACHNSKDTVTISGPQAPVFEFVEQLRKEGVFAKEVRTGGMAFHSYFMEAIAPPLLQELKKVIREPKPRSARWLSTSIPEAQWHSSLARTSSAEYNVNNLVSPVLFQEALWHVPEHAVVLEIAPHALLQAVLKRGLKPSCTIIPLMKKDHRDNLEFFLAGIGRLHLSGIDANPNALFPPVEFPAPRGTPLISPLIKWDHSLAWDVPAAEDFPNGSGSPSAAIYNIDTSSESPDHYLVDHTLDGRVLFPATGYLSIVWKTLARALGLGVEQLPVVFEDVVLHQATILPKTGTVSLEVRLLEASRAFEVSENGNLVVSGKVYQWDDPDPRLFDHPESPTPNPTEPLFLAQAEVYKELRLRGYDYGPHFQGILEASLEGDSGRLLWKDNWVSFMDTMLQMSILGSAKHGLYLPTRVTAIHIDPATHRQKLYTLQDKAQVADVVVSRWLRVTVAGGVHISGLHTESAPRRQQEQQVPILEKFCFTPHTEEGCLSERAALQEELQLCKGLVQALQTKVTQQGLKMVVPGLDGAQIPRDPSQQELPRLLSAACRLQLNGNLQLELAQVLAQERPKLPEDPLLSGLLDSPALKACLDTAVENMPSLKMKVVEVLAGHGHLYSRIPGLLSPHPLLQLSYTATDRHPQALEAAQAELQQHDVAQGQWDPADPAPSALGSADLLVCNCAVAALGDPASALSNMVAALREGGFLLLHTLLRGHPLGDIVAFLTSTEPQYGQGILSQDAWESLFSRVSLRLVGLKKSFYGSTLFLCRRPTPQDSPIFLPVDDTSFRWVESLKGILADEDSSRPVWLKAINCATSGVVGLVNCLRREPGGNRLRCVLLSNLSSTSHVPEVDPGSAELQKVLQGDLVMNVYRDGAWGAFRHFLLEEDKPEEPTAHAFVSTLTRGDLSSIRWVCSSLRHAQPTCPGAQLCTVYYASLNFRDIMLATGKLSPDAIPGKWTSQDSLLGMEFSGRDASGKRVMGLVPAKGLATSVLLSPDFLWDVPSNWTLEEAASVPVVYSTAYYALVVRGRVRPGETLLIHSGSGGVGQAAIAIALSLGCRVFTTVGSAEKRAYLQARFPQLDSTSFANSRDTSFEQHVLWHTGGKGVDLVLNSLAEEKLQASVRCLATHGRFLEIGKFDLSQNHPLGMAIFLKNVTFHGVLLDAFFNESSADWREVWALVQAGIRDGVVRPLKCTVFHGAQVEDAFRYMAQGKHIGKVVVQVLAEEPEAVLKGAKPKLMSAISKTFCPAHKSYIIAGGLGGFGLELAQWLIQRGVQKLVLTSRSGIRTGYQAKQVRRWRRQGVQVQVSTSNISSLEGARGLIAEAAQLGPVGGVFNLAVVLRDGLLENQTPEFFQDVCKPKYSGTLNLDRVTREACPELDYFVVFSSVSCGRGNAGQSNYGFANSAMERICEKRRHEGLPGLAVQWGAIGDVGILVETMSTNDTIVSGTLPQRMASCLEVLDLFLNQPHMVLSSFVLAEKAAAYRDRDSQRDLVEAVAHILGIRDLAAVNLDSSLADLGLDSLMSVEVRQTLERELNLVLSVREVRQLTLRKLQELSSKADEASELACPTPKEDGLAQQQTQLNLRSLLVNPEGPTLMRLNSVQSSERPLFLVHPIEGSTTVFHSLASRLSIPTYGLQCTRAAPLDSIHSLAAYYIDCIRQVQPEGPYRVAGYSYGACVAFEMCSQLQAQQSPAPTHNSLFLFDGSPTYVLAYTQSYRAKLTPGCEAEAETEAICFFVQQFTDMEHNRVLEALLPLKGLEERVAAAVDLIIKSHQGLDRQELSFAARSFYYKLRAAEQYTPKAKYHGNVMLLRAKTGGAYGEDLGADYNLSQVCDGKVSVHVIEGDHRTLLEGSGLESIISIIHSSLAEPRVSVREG
- TEST_SUMMARY: inhibition of human FAS-TE enzyme activity – biochemical, endpoint fluorescence intensity, uHTS hits, dose response (AID 624327);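 also: fluorescence from hydrolysis of an O-methyl fluorescein acyl ester substrate by the enzyme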
- Assay type: functional
Calls of active or inactive are those of the source.
ASSAY_METRIC: IC50

{"columns": ["QUERY_SMILES", "DATA_VALUE"],
 "data": [
  ["O=S(=O)(Nc1cccc(-c2ccc(N3CCCCCC3)nn2)c1)c1ccccc1F", "7.03 µM (active)"],
  ["Cc1cccc(C(=O)NCCC(=O)Nc2ccc(F)c([N+](=O)[O-])c2)c1", "12.3 µM (active)"],
  ["CCCNC(=O)/C(=C/c1cn(S(=O)(=O)N(C)C)c2ccccc12)NC(=O)c1ccc(OC)cc1", "4.86 µM (active)"],
  ["N#Cc1cc2sc3nnc(-c4ccncc4)n3c2cc1C#N", "3.82 µM (active)"],
  ["COc1cc(/C=N/N(C)c2ccccc2)cc(Cl)c1O", "4.5 µM (active)"],
  ["CC(C)(C)c1ccc(C(=O)NCCC(=O)Nc2cc(Cl)ccc2N2CCOCC2)cc1", "9.59 µM (active)"],
  ["CN1CCN(c2ccc([N+](=O)[O-])cc2/C=N/NC(=O)c2ccc(F)cc2)CC1", "11.2 µM (active)"]
]}

====

- EXPERIMENTAL_TARGET: Nucleotide-binding oligomerization domain-containing protein 2 (Homo sapiens)
- Sequence (Q9HC29 whole entry, the tested form may be a part): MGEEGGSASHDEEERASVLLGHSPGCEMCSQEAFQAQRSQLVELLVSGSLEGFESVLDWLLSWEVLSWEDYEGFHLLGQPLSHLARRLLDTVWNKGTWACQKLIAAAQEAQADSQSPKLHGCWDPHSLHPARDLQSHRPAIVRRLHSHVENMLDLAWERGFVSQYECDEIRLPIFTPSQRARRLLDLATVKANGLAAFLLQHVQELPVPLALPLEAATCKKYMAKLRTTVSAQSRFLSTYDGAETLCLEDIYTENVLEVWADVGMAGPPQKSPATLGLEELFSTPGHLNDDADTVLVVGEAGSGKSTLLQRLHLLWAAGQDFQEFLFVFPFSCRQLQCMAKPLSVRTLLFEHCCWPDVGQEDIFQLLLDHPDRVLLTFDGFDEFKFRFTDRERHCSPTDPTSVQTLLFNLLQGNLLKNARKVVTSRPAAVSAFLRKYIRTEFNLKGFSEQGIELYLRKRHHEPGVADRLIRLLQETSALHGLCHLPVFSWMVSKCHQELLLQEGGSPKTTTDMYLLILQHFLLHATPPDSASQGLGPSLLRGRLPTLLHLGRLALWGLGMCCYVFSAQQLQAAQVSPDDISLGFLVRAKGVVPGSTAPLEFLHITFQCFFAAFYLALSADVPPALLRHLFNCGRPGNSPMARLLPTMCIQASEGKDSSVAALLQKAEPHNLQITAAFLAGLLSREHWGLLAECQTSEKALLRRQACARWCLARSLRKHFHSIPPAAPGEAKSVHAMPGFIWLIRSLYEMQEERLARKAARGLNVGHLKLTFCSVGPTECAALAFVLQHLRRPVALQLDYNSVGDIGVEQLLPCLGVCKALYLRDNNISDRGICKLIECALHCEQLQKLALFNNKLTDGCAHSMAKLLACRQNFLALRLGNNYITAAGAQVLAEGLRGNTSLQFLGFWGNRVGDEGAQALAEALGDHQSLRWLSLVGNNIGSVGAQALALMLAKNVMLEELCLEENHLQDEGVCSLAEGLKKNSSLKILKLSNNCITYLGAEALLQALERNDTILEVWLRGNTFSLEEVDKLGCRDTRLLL
- TEST_SUMMARY: inhibition of NOD2-driven NF-kB reporter – cell-based, luminescence, uHTS, HEK293 (AID 1566)
- Type: functional
The source made the active and inactive calls.
Labels: true (1) for active, false (0) for inactive

{"columns": ["QUERY_SMILES", "ANSWER_LABEL"],
 "data": [
  ["COc1ccc(-n2c(C)c([N+](=O)[O-])c3ccc(O)c(CN4CCCCC4)c32)cc1", "false (0)"],
  ["COc1ccc(O)c(-c2[nH]ncc2C(=O)c2ccccc2)c1", "true (1)"],
  ["COc1ccc(CCNc2oc(COc3ccc(Br)cc3)nc2C#N)cc1OC", "true (1)"],
  ["Cc1csc2ncnc(NC3CCN(Cc4ccccc4)CC3)c12", "true (1)"]
]}
